Target: Vitamin D3 receptor (Bos taurus)
Assay: Relative affinity for bovine thymus Vitamin D3 receptor (VDR)
Each entry gets 0 (no) if its Activity stays under 10%, and 1 (yes) if its Activity is 10% or above.

INSERT INTO assay_data (smiles_structure, label_class) VALUES
  ('C=C1/C(=C\C=C2/CCC[C@]3(C)[C@@H]([C@@H](C)[C@@H](/C=C/CCC(C)(C)O)CC)CC[C@@H]23)C[C@@H](O)C[C@@H]1O', '1 (yes)'),
  ('C=C1/C(=C\C=C2/CCC[C@]3(C)[C@@H]([C@@H](C)[C@H](/C=C/CCC(C)(C)O)CC)CC[C@@H]23)C[C@@H](O)C[C@@H]1O', '0 (no)'),
  ('C=C1/C(=C\C=C2/CCC[C@]3(C)[C@@H]([C@@H](C)[C@H](C)CCC(C)(C)O)CC[C@@H]23)C[C@@H](O)C[C@@H]1O', '1 (yes)'),
  ('C=C1/C(=C\C=C2/CCC[C@]3(C)[C@@H]([C@@H](C)[C@@H](C)CCC(C)(C)O)CC[C@@H]23)C[C@@H](O)C[C@@H]1O', '0 (no)'),
  ('C=C1/C(=C\C=C2/CCC[C@]3(C)[C@@H]([C@H](C)CCCC(C)(C)O)CC[C@@H]23)C[C@@H](O)C[C@@H]1O', '1 (yes)');
